IC50 values by entry
TARGET DESC: NAMPT (human, recombinant, C-terminally His-tagged) (Homo sapiens, UniProt P43490)
Sequence (P43490 whole entry): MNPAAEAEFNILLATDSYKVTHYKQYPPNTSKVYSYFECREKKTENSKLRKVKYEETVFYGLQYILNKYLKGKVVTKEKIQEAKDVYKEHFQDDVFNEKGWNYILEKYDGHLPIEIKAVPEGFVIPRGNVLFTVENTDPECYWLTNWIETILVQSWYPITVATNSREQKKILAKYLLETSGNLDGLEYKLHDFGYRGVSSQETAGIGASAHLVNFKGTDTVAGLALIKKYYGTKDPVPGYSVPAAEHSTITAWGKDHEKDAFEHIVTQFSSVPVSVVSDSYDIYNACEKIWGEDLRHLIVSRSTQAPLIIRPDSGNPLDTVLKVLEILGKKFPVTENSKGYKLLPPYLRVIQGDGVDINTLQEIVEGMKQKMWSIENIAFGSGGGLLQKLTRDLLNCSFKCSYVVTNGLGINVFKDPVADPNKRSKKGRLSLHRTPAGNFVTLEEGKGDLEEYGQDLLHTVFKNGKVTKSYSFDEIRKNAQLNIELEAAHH
PROTOCOL: Time-Resolved Fluorescence Resonance Energy Transfer (TR-FRET) Binding Assay of NAMPT
TEST CONDITIONS: 6.8 nM NAMPT, 200 nM probe, equilibrated 3 hours, absence of substrates
// return numeric value only (unit: µM, not printed)

Would you please look over these solved cases?
[
  {
    "COMPOUND": "CC(=O)N[C@@H](CC(C)C)C(=O)N1CCC(Oc2ccc(NC(=O)C3CN(c4cccnc4)C3)cc2)CC1 [Example 47]",
    "EXPERIMENTAL ENDPOINT": "IC50",
    "NUMBER": 0.0805
  },
  {
    "COMPOUND": "O=C(Nc1ccc(C2CCN(C(=O)CSc3ncccn3)CC2)cc1)C1CN(c2cccnn2)C1 [Example 382]",
    "EXPERIMENTAL ENDPOINT": "IC50",
    "NUMBER": 0.0658
  }
]

Switching to the query record.
Identify IC50 associated with the compound CCCCC(=O)N1CCC(c2ccc(NC(=O)C3CN(c4cccnc4C)C3)cc2)CC1 [Example 159]
0.137
